Entries and their IC50 values follow.
target: EGFR SVD (Homo sapiens, UniProt P00533, INS770SVD); assay: BaF3 cell proliferation assay (CellTiterGlo), EGFR SVD; conditions: Table A; BaF3 cells, 3 days
Sequence (P00533 with tags, fused parts or gaps INS770SVD): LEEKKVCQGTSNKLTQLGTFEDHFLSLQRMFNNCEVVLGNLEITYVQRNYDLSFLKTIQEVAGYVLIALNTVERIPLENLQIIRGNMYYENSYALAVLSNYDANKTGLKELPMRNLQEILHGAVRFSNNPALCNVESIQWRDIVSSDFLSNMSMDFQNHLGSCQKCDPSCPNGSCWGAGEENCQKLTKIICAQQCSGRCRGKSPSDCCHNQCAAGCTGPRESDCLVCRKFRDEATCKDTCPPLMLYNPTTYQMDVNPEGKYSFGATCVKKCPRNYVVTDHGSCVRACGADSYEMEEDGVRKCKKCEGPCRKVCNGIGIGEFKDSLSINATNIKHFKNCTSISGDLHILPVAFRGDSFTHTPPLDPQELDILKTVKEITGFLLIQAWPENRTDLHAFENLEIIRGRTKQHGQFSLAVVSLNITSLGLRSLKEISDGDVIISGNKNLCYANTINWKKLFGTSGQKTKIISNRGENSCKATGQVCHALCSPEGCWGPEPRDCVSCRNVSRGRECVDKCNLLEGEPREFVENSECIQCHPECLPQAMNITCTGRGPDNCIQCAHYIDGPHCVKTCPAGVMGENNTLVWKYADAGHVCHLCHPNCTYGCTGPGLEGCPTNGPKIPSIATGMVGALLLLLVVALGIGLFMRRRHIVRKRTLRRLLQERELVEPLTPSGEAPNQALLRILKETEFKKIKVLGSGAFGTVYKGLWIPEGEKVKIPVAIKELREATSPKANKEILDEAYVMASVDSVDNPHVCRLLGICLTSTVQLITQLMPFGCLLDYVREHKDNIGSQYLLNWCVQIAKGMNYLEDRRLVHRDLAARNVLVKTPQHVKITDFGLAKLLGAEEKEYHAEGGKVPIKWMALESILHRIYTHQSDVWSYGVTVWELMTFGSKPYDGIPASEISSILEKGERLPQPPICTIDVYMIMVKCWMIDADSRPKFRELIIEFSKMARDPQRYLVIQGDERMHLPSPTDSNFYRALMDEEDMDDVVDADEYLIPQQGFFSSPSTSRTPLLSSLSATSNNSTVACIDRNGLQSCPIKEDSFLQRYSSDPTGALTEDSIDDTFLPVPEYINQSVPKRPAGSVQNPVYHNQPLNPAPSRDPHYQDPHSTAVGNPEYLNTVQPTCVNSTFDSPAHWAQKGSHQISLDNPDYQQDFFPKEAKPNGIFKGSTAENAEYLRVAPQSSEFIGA

> print(dat)
                                   compound         result
1  C=CC(=O)Nc1cc2c(Nc3cccc(Cl)c3F)ncnc2cc1C#C[C@]1(C)CCN(C)C1  100 to 500 nM
2  C=CC(=O)Nc1cc2c(Nc3cccc(Cl)c3F)ncnc2cc1C#C[C@@]1(C)CCN(C)C1  100 to 500 nM
3  C=CC(=O)Nc1cc2c(Nc3cccc(Cl)c3F)ncnc2cc1C#CC1(C)CCN(C)C1 (centres unmarked)  100 to 500 nM
4  C=CC(=O)Nc1cc2c(Nc3ccc(Oc4ccccc4)cc3)ncnc2cc1C#C[C@]12C[C@H]1CN(C)C2  100 to 500 nM

Now turn to the next compound.
Q. Identify measured IC50 associated with C=CC(=O)Nc1cc2c(Nc3ccc(OCc4ccccn4)c(Cl)c3)ncnc2cc1C#CC1(C)CCN(C)C1 (centres unmarked)
A. ≤ 50 nM

* * *

target: EGFR wt (Homo sapiens, UniProt P00533); construct: expressed in transfected cells; host or cells: BaF3 (murine pro-B) cells, retroviral transduction with pMXs-IRES-Blasticidin; test: BaF3 cell proliferation assay (CellTiterGlo), EGFR wt; assay type: cell-based; conditions: Table A; BaF3 cells, 3 days
Sequence (P00533 25-1210): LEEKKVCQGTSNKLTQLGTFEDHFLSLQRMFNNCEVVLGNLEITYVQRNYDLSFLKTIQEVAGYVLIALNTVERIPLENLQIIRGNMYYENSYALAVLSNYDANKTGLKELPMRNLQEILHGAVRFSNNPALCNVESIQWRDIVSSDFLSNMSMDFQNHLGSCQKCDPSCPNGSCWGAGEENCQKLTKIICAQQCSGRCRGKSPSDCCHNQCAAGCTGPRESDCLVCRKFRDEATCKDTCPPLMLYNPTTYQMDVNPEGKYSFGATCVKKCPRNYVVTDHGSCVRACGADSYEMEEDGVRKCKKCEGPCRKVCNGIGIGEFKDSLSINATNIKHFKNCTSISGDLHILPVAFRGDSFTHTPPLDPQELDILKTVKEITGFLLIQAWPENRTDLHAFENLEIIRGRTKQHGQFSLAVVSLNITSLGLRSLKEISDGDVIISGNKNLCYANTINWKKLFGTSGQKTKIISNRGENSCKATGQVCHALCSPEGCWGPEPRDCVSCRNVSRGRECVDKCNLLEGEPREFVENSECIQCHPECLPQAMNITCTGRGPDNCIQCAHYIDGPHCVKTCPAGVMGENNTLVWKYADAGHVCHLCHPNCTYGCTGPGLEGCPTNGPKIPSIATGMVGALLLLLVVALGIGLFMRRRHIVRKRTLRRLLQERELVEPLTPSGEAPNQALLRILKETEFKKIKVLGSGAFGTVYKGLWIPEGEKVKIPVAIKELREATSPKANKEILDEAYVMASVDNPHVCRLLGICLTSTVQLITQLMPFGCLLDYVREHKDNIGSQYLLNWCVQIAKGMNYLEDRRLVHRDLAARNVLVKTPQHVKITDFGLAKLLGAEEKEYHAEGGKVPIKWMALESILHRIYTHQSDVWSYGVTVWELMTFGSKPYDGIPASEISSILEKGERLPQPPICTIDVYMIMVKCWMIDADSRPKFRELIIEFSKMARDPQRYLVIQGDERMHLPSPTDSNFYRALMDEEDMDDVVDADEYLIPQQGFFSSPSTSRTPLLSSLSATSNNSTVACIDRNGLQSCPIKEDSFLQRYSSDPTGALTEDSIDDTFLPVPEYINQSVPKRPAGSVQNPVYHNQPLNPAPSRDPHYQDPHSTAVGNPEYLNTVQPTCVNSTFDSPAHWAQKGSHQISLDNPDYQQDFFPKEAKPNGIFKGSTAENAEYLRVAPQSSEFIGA
observationType: IC50

Worked cases, answers included:
> print(dat)
                                   molecule         result
1  C=CC(=O)Nc1cc2c(Nc3ccc(Cl)c(Cl)c3F)ncnc2cc1C#C[C@@]12C[C@@H]1CN(C)C2        ≤ 50 nM
2  C=CC(=O)Nc1cc2c(Nc3ccc(Cl)c(Cl)c3F)ncnc2cc1C#CC1(C)CCN(C)C1 (stereo not shown)        ≤ 50 nM
3  C=CC(=O)Nc1cc2c(Nc3ccc(OCc4ccccn4)c(Cl)c3)ncnc2cc1C#C[C@H]1[C@H]2CN(C)C[C@@H]12       > 500 nM
4  C=CC(=O)Nc1cc2c(Nc3ccc(OCc4ccccn4)c(Cl)c3)ncnc2cc1C#CC1(C)CCN(C)C1 (stereo not shown)       > 500 nM
5  C=CC(=O)Nc1cc2c(Nc3cccc(Cl)c3F)ncnc2cc1C#CC1(F)CCN(C)C1 (stereo not shown)  100 to 500 nM
6  C=CC(=O)Nc1cc2c(Nc3cccc(Cl)c3F)ncnc2cc1C#CC1(C)CCN(C)C1 (stereo not shown)   50 to 100 nM

Now turn to the next molecule.
Q. Identify measured IC50 associated with C=C(F)C(=O)Nc1cc2c(Nc3cccc(Cl)c3F)ncnc2cc1C#CC1(C)CCN(C)C1 (stereo not shown)
A. ≤ 50 nM

* * *

Entries and their IC50 values follow.
molecular target: EGFR V3 (Homo sapiens, UniProt P00533, DELINS30-297G); construct: expressed in transfected cells; host or cells: BaF3 (murine pro-B) cells, retroviral transduction with pMXs-IRES-Blasticidin; assay: BaF3 cell proliferation assay (CellTiterGlo), EGFR V3; assay type: cell-based; conditions: Table A; BaF3 cells, 3 days
Sequence (P00533 with tags, fused parts or gaps DELINS30-297G): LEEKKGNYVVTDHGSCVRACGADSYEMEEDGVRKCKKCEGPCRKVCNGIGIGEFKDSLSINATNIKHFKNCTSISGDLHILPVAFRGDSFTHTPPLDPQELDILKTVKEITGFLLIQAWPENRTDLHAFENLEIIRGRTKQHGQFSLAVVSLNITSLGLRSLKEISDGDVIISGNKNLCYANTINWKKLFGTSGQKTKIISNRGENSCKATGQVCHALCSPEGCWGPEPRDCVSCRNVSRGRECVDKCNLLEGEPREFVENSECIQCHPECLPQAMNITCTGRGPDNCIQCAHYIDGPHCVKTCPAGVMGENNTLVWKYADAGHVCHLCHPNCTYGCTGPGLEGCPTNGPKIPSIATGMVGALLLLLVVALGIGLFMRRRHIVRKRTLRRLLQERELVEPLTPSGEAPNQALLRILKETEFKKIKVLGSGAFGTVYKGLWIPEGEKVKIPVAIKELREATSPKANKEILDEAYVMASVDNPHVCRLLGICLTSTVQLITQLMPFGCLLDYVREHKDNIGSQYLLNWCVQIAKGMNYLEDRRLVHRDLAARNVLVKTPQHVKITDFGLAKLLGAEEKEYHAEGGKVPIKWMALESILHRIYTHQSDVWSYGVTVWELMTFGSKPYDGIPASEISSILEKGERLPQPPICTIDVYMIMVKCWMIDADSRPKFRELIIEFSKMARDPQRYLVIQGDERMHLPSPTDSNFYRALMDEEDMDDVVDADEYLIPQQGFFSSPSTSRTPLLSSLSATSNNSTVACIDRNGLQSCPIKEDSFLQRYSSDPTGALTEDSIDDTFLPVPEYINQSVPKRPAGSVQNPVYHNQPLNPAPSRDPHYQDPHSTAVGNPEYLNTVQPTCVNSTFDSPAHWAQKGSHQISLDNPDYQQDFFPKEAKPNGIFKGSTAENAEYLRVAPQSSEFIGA

Worked cases, answers included:
> print(dat)
                                   compound         result
1  C=CC(=O)Nc1cc2c(Nc3ccc(Oc4ccccc4)cc3)ncnc2cc1C#C[C@]12C[C@H]1CN(C)C2        ≤ 50 nM
2  C=CC(=O)Nc1cc2c(Nc3cccc(Cl)c3F)ncnc2cc1C#CC1(C)CCN(CC(F)(F)F)C1 (stereo not shown)  100 to 500 nM
3  C/C=C/C(=O)Nc1cc2c(Nc3cccc(Cl)c3F)ncnc2cc1C#C[C@@]1(C)CCN(C)C1       > 500 nM
4  C=C(CO)C(=O)Nc1cc2c(Nc3cccc(Cl)c3F)ncnc2cc1C#C[C@@]12C[C@@H]1CN(C)C2        ≤ 50 nM
5  COC/C=C/C(=O)Nc1cc2c(Nc3cccc(Cl)c3F)ncnc2cc1C#C[C@@]12C[C@@H]1CN(C)C2  100 to 500 nM
6  COC(=O)Nc1cc2c(Nc3cccc(Cl)c3F)ncnc2cc1C#CC1(C)CCN(C)C1 (stereo not shown)       > 500 nM

Now turn to the next compound.
Q. Identify measured IC50 associated with CN1CC[C@](C)(C#Cc2cc3ncnc(Nc4cccc(Cl)c4F)c3cc2NC(=O)/C=C/CN2CCOCC2)C1
A. 100 to 500 nM
